Assay: Waters ACQUITY UPLC BEH C18, 100 × 2.1 mm, 1.7 µm, 40 °C, 0.28 mL/min, estimated dead time 0.63 min; A: water + 6.5 mM ammonium hydroxide; B: methanol + 6.5 mM ammonium hydroxide; gradient (min/%B) 0/0.5 4/70 4.5/98 5.4/98
Conditions: stereoisomer not certain
Returns: string. Value is 1.0 if measured LC retention time is below 3 min, and 0.0 if it is greater than or equal to it.

Compound | Class
COc1cc(CC(=O)O)ccc1O | 1.0
O=C(C=Cc1ccc(O)c(O)c1)OC(Cc1ccc(O)c(O)c1)C(=O)O (stereo not drawn) | 0.0
NC1(C(=O)O)CC1 | 1.0
[2H]c1[nH]c2c([2H])c([2H])c([2H])c([2H])c2c1CC(=O)O | 1.0
CC(C)(C)NCC(O)c1ccc(O)c(CO)c1 (stereo not drawn) | 0.0
O=C(O)c1ccnc2ccccc12 | 1.0
O=C(O)c1ccc2ccccc2c1O | 0.0
O=Cc1c[nH]c2ccccc12 | 0.0
CNC(=O)c1cccnc1 | 1.0
Oc1ccc(C=Cc2cc(O)cc(O)c2)cc1 | 0.0
CCCC(CCC)C(=O)O | 0.0
[2H]C([2H])([2H])C([2H])([2H])C([2H])([2H])C([2H])([2H])C([2H])([2H])C([2H])([2H])C([2H])([2H])C(=O)O | 0.0
COc1ccc2[nH]cc(CCN)c2c1 | 0.0
